- test.protocol: Antiproliferative activity against human CRL1739 cells by MTT assay
- Type: functional, cell-based
measurement.kind: IC50

Known IC50 results, listed for orientation:
COc1cc2c3c(nccc3c1[N+](=O)[O-])-c1ccccc1C2=O | 4500 nM
COc1cc2c3c(c1)C(=O)c1ccccc1C3=NCC2 | > 2090 nM
COc1cc2ccnc3c2c(c1[N+](=O)[O-])C(=O)c1ccccc1-3 | > 2090 nM
CNc1c(OC)cc2ccnc3c2c1C(=O)c1cc(OC)ccc1-3 | > 2090 nM

Would you mind telling me what IC50 value was observed for COc1cc2ccnc3c2c(c1N)C(=O)c1ccccc1-3 ?
> 2090 nM

Would you mind telling me what IC50 value was observed for COc1ccc2c(c1)C(=O)c1c(N)c(OC)c(OC)c3ccnc-2c13 ?
> 3000 nM

Would you mind telling me what IC50 value was observed for COc1ccc2c(c1)C(=O)c1c(NCCc3ccc(O)cc3)c(OC)cc3ccnc-2c13 ?
> 3000 nM

Would you mind telling me what IC50 value was observed for COc1cc2c3c(c1[N+](=O)[O-])CCN=C3c1ccccc1C2=O ?
> 2090 nM

Would you mind telling me what IC50 value was observed for COc1cc2c3c(nccc3c1N)-c1ccccc1C2=O ?
> 2090 nM

Would you mind telling me what IC50 value was observed for COc1ccc2c(c1)C(=O)c1c(NCCc3ccc(O)cc3)c(OC)c(OC)c3ccnc-2c13 ?
> 2090 nM

Would you mind telling me what IC50 value was observed for COc1cc2c3c(c1[N+](=O)[O-])C(=O)c1ccccc1C3=NCC2 ?
> 2090 nM

Would you mind telling me what IC50 value was observed for COc1cc2c3c(nccc3c1)-c1ccccc1C2=O ?
> 2090 nM

Recorded values, source ChEMBL document CHEMBL1649338.
